Where do the numbers come from? From PubChem BioAssay AID1745844.

# System: rodent lifetime carcinogenesis bioassay, tumor incidence TD50
# PROTOCOL: carcinogenic potency in animals, long-term in vivo studies, CPDB compilation (AID 1745844)
# SETTINGS: rat; strain Fischer 344; males; in drinking water; site: skin; lesion: keratoacanthoma; dosed 104 weeks; study length 104 weeks
REPORTED_PROPERTY: TD50

Input: Look up TD50 with rodent lifetime carcinogenesis bioassay, tumor incidence TD50 for this compound: `Cc1ccc(S(=O)(=O)Oc2ccc(N=Nc3ccc(-c4ccc(N=Nc5c(O)ccc6cc(S(=O)(=O)O)cc(S(=O)(=O)O)c56)c(C)c4)cc3C)cc2)cc1`
Output: 20.4 mg/kg/day
